Data origin, for the record: patent US20140303084A1

The following binders are shown together with reported EC50 [µM], FXa generation assay values.
molecular target: human Factor IXa (human, UniProt P00740 47-191; P00740 227-461); test: cell-based or functional assay
Square brackets hold non-standard residues; d marks the D form. Primed or numbered codes have the meaning given here. Side chains are listed from the residue outwards. Ends that are not written are not given here. * marks the point of attachment. Biotin = O=C1N[C@H]2[C@H](CS[C@H]2CCCCC(=O)*)N1; PEG2(3) = PEG2 spacer carrying biotin on Lys; (PEG)4 = polyethylene glycol, 4 units; Tle = CC(C)(C)[C@H](N)C(=O)O; Dap = NC[C@H](N)C(=O)O
readout.name: EC50 [µM], FXa generation assay

>>> result("RRAPGKLTKLASYEWLFWTGIA-OH [RRAPGKLT-Lys-LASY-Glu-WLFWTGIA-COOH]")
"< 0.5 µM"
>>> result("KLTCL[dA]SYCWLF (not fully specified (bridges); printed as KLTCLaSYCWLF; cysteine pairing not given here) [KLTCLaSYCWLF]")
"> 5 µM"
>>> result("RK([PEG2(3)-Biotin])APGKLTCLASYCWLFWTGIA (not fully specified (C-terminus); printed as RK(PEG2-Biotin)APGKLTCLASYCWLFWTGIA; cysteine pairing not given here) [RK(PEG2-Biotin)APGKLTCLASYCWLFWTGIA]")
"< 0.5 µM"
>>> result("QAKMLKLTCLASYCWLFWVTRS")
"< 0.5 µM"
>>> result("TSGPFGFGGSSRAQGKLTCLASYCWLFWTGIA [TSGPFGFGGS SRAQG KLTCLASYCWLFWTGIA]")
"> 1 µM"
>>> result("PRIRTVGPGSRSASGKLTCLASYCWLFWTGI")
"< 0.5 µM"
>>> result("QDGVEKLTCLASYCWRFGDHGA")
"> 50 µM"
>>> result("KLTCLASYCWLF-{(PEG)4-NH2} (cysteine pairing not given here) [KLTCLASYCWLF-(PEG)4-CONH2]")
"> 1 µM"
>>> result("RR[dA]PGKLTCLASYCWLFWTGIA (not fully specified (bridges); printed as RRaPGKLTCLASYCWLFWTGIA; cysteine pairing not given here) [RRaPGKLTCLASYCWLFWTGIA]")
"> 1 µM"
>>> result("QQTCQASQCQLF")
"> 20 µM"
>>> result("PRSRTVGPGSRSASGKLTCLASYCWLFWTGIA")
"< 0.5 µM"
>>> result("PRTTANRRSSRRAPAKLTCLASYCWLFWTGIA [PRTTANRRSS RRAPA KLTCLASYCWLFWTGIA]")
"< 0.5 µM"
>>> result("ALTCLAAYCALF")
"> 1 µM"
>>> result("RRAPGKLQCLASYCWLFWTG[Tle]A (not fully specified; printed as RRAPGKLQCLASYCWLFWTG-Tle-A; cysteine pairing not given here) [RRAPGKLQCLASYCWLFWTG-Tle-A]")
"< 0.5 µM"
>>> result("KLT[Dap]LASYEWLF (not fully specified; printed as KLT-Dap-LASY-Glu-WLF) [KLT-Dap-LASY-Glu-WLF]")
"< 0.5 µM"
>>> result("LLHAQKLSCLASYCWVFDAEWD")
"< 0.5 µM"
>>> result("PARGKERELMRRAPGKLTCLASYCWLFWTGIA [PARGKERELM RRAPG KLTCLASYCWLFWTGIA]")
"> 1 µM"
>>> result("VDKGHQLRCQAGYCWLLGYNRE")
"> 50 µM"
>>> result("C(PEG 5 kDa)GGGRRAPGKLTDLASYKWLFWTGIA (not fully specified; printed as C(PEG5k)GGG-RRAPGKLT-Asp-LASY-Lys-WLFWTGIA) [C(PEG5k)GGG-RRAPGKLT-Asp-LASY-Lys-WLFWTGIA]")
"> 1 µM"
>>> result("TGLLQGRRDERARPPKLTCLASYCWLFWTGIA [TGLLQGRRDE RARPP KLTCLASYCWLFWTGIA]")
"< 0.5 µM"
>>> result("KRAPGKLQCLASYCWLFWTGIA")
"< 0.5 µM"
>>> result("SRSRTVSPGSRSASGKSTCLASYCWLFWTGIA")
"< 0.5 µM"
>>> result("SISGQQLTCRASHCWLNLPWHS")
"> 20 µM"
